Tested on: 941728-121-R-J1-PDC complex spheroid viability;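 further: spheroids exposed to compounds for 7 days before readout; 100% = DMSO vehicle control viability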
Experiment: Anticancer human tumor 941728-121-R-J1-PDC patient-derived lung adenocarcinoma cell line growth inhibition [RAS]
Conditions: second compound 0.3 µM; first compound 0.1 µM; active compounds read low
Below, each of the compounds is paired with its reported viability, T/C value.
assay-metric: viability, T/C (%)

[
  {
    "compound": "CCN1CCN(Cc2ccc(Nc3ncc(F)c(-c4cc(F)c5nc(C)n(C(C)C)c5c4)n3)nc2)CC1 + CCn1c(-c2cccnc2C(C)OC)c2c3cc(ccc31)N1CCOC(CC(NC(=O)C(C(C)C)N(C)C(=O)C3(F)CCN(C(=O)C#CC(C)(C)N(C)C)CC3)C(=O)N3CCCC(N3)C(=O)OCC(C)(C)C2)C1",
    "assay-metric": "viability, T/C",
    "unit-string": "%",
    "readout-value": 16.3
  },
  {
    "compound": "Cc1nc(N2CCC3(CC2)COC(C)C3N)c(CO)nc1Sc1ccnc(N)c1Cl (stereo not drawn) + CCn1c(-c2cccnc2C(C)OC)c2c3cc(ccc31)N1CCOC(CC(NC(=O)C(C(C)C)N(C)C(=O)C3(F)CCN(C(=O)C#CC(C)(C)N(C)C)CC3)C(=O)N3CCCC(N3)C(=O)OCC(C)(C)C2)C1",
    "assay-metric": "viability, T/C",
    "unit-string": "%",
    "readout-value": 20.9
  },
  {
    "compound": "CC(Nc1ccc2c(c1)OCCn1cc(N3C(=O)OCC3C(F)F)nc1-2)C(N)=O (stereo not drawn) + CCn1c(-c2cc(N3CCN(C)CC3)cnc2C(C)OC)c2c3cc(ccc31)-c1csc(n1)CC(NC(=O)C1CC1C)C(=O)N1CCCC(N1)C(=O)OCC(C)(C)C2",
    "assay-metric": "viability, T/C",
    "unit-string": "%",
    "readout-value": 9.97
  },
  {
    "compound": "NC1c2ccccc2OC12CCN(c1cnc3c(N4CCCc5ncccc54)n[nH]c3n1)CC2 (stereo not drawn) + CCn1c(-c2cc(N3CCN(C)CC3)cnc2C(C)OC)c2c3cc(ccc31)-c1csc(n1)CC(NC(=O)C1CC1C)C(=O)N1CCCC(N1)C(=O)OCC(C)(C)C2",
    "assay-metric": "viability, T/C",
    "unit-string": "%",
    "readout-value": 12.1
  },
  {
    "compound": "CC(C)n1nc(-c2ccc3oc(N)nc3c2)c2c(N)ncnc21 + CCn1c(-c2cccnc2C(C)OC)c2c3cc(ccc31)N1CCOC(CC(NC(=O)C(C(C)C)N(C)C(=O)C3(F)CCN(C(=O)C#CC(C)(C)N(C)C)CC3)C(=O)N3CCCC(N3)C(=O)OCC(C)(C)C2)C1",
    "assay-metric": "viability, T/C",
    "unit-string": "%",
    "readout-value": 10.8
  },
  {
    "compound": "CC(C)NCC(C(=O)N1CCN(c2ncnc3c2C(C)CC3O)CC1)c1ccc(Cl)cc1 (stereo not drawn) + CCn1c(-c2cc(N3CCN(C)CC3)cnc2C(C)OC)c2c3cc(ccc31)-c1csc(n1)CC(NC(=O)C1CC1C)C(=O)N1CCCC(N1)C(=O)OCC(C)(C)C2",
    "assay-metric": "viability, T/C",
    "unit-string": "%",
    "readout-value": 14.2
  },
  {
    "compound": "CC1(O)CCCC1n1c(=O)c(C(F)F)cc2cnc(NC3CCN(S(C)(=O)=O)CC3)nc21 (stereo not drawn) + CCn1c(-c2cccnc2C(C)OC)c2c3cc(ccc31)N1CCOC(CC(NC(=O)C(C(C)C)N(C)C(=O)C3(F)CCN(C(=O)C#CC(C)(C)N(C)C)CC3)C(=O)N3CCCC(N3)C(=O)OCC(C)(C)C2)C1",
    "assay-metric": "viability, T/C",
    "unit-string": "%",
    "readout-value": 23.4
  },
  {
    "compound": "CC(C)n1nc(-c2ccc3oc(N)nc3c2)c2c(N)ncnc21 + CCn1c(-c2cc(N3CCN(C)CC3)cnc2C(C)OC)c2c3cc(ccc31)-c1csc(n1)CC(NC(=O)C1CC1C)C(=O)N1CCCC(N1)C(=O)OCC(C)(C)C2",
    "assay-metric": "viability, T/C",
    "unit-string": "%",
    "readout-value": 7.03
  },
  {
    "compound": "CC(Nc1ccc2c(c1)OCCn1cc(N3C(=O)OCC3C(F)F)nc1-2)C(N)=O (stereo not drawn) + CCn1c(-c2cccnc2C(C)OC)c2c3cc(ccc31)N1CCOC(CC(NC(=O)C(C(C)C)N(C)C(=O)C3(F)CCN(C(=O)C#CC(C)(C)N(C)C)CC3)C(=O)N3CCCC(N3)C(=O)OCC(C)(C)C2)C1",
    "assay-metric": "viability, T/C",
    "unit-string": "%",
    "readout-value": 18.8
  },
  {
    "compound": "Nc1ccn(C2OC(CO)C(O)C2(F)F)c(=O)n1 (stereo not drawn) + CCn1c(-c2cccnc2C(C)OC)c2c3cc(ccc31)N1CCOC(CC(NC(=O)C(C(C)C)N(C)C(=O)C3(F)CCN(C(=O)C#CC(C)(C)N(C)C)CC3)C(=O)N3CCCC(N3)C(=O)OCC(C)(C)C2)C1",
    "assay-metric": "viability, T/C",
    "unit-string": "%",
    "readout-value": 18.1
  },
  {
    "compound": "O=C(c1ccc(F)c(F)c1Nc1ccc(I)cc1F)N1CC(O)([C@@H]2CCCCN2)C1 + CCn1c(-c2cc(N3CCN(C)CC3)cnc2C(C)OC)c2c3cc(ccc31)-c1csc(n1)CC(NC(=O)C1CC1C)C(=O)N1CCCC(N1)C(=O)OCC(C)(C)C2",
    "assay-metric": "viability, T/C",
    "unit-string": "%",
    "readout-value": 11.5
  },
  {
    "compound": "NC1c2ccccc2OC12CCN(c1cnc3c(N4CCCc5ncccc54)n[nH]c3n1)CC2 (stereo not drawn) + CCn1c(-c2cccnc2C(C)OC)c2c3cc(ccc31)N1CCOC(CC(NC(=O)C(C(C)C)N(C)C(=O)C3(F)CCN(C(=O)C#CC(C)(C)N(C)C)CC3)C(=O)N3CCCC(N3)C(=O)OCC(C)(C)C2)C1",
    "assay-metric": "viability, T/C",
    "unit-string": "%",
    "readout-value": 20.5
  },
  {
    "compound": "C=CC(=O)N1CCN(c2nc(OCC3CCCN3C)nc3c(F)c(-c4nc(N)cc(C)c4C(F)(F)F)c(Cl)cc23)C(C)C1 (stereo not drawn) + CCn1c(-c2cccnc2C(C)OC)c2c3cc(ccc31)N1CCOC(CC(NC(=O)C(C(C)C)N(C)C(=O)C3(F)CCN(C(=O)C#CC(C)(C)N(C)C)CC3)C(=O)N3CCCC(N3)C(=O)OCC(C)(C)C2)C1",
    "assay-metric": "viability, T/C",
    "unit-string": "%",
    "readout-value": 21.4
  }
]
